system-tested: Ataxin-2 (Homo sapiens) (UniProt Q99700)
Sequence (Q99700 whole entry): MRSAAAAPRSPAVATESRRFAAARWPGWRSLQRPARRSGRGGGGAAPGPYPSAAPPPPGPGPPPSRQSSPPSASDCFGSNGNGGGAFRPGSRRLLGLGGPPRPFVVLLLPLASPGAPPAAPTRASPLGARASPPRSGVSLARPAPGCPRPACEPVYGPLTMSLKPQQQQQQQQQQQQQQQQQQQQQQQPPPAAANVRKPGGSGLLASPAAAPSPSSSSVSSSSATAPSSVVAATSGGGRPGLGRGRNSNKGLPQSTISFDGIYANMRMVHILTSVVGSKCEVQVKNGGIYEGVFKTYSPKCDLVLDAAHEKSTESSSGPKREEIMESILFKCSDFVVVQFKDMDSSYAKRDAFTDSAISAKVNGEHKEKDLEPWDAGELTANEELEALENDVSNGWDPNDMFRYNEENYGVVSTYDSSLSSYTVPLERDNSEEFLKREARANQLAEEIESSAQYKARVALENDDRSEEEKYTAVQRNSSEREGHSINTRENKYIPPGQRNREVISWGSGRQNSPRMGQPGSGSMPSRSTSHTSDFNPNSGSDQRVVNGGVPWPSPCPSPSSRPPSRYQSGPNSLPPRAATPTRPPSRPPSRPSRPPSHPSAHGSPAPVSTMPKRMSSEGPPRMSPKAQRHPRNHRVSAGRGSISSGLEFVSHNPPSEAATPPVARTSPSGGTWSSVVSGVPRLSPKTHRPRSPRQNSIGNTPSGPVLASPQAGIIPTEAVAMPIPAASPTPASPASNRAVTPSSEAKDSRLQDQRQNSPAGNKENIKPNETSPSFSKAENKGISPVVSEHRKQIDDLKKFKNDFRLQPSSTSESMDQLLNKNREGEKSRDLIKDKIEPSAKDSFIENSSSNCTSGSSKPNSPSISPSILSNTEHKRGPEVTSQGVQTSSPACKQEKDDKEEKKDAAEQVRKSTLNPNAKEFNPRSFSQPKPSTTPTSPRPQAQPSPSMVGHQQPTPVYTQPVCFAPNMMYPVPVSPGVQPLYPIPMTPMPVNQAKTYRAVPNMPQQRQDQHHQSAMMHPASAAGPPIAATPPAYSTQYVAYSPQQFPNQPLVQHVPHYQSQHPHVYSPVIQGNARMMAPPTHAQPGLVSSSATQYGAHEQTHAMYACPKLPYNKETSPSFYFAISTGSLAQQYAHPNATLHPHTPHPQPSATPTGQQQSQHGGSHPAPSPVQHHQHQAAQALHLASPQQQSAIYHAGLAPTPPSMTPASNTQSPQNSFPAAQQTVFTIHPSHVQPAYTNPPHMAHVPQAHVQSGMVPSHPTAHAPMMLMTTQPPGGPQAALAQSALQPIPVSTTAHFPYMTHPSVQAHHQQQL
assay-text: qHTS for Inhibitors of ATXN expression.
Format: functional
Hit rate of the full screen: of about 400,000 compounds, about 2,100 (0.53%) were called active. Not shown: some 14% with an inconclusive outcome. No rule for the calls is given here. For the sample, actives were picked, then their nearest neighbours and some compounds at random.
Hi there, use one of these labels in your reply, thanks! active, inactive

Input line: How was CC(=O)/C(=N\Nc1ccccc1)Oc1ccc(Br)cc1 classified in this test?
Output line: inactive

Input line: Same again, this time with O=C(O)c1ccc(N/N=C/c2ccc(-c3cc(Cl)ccc3Cl)o2)cc1
Output line: inactive

Input line: Same again, this time with O=C(c1cccc(Cl)c1)N1CCC(N2CCC(C(=O)N3CCCC3)CC2)CC1
Output line: active

Input line: Same again, this time with O=C(Nc1ccccc1)c1ncoc1-c1ccc(Cl)cc1
Output line: inactive

Input line: Same again, this time with Cc1ccc(Cn2c(C(CO)Nc3nc(-c4ccc(F)cc4)cs3)nc3ccccc32)cc1 (stereo unspecified)
Output line: active

Input line: Same again, this time with Sc1nc(-c2ccccc2)cn1/N=C/c1ccccc1Br
Output line: inactive

Input line: Same again, this time with COc1cc(/C=C/c2nc(O)c3ccccc3n2)cc(Cl)c1O
Output line: inactive

Input line: Same again, this time with CC(C)Cc1cc(C(=O)N2CCC(N3CCC(C(=O)N4CCCC4)CC3)CC2)[nH]n1
Output line: inactive

Input line: Same again, this time with Cc1ccc(Cn2cccc(-c3nc4ccccc4s3)c2=O)cc1
Output line: inactive

Input line: Same again, this time with CC(C)CC(=O)NC(=S)Nc1nc(-c2ccc(Cl)cc2)cs1
Output line: inactive

Input line: Same again, this time with COc1ccc(C(=O)Nc2cccc(/C=C/c3nc(O)c4ccccc4n3)c2)cc1
Output line: active

* * *

system-tested: Ataxin-2 (Homo sapiens) (UniProt Q99700)
assay-text: qHTS for Inhibitors of ATXN expression.
Assay type: functional
In all, about 400,000 compounds went through this assay and about 2,100 (0.53%) were called active. About 14% were inconclusive and are not listed. This is one part of a sample in which actives are shown more often than they occur.
assay-readout: Potency

Examples from the recorded data:
# molecule, Potency
records = [
    ("Cc1ccc(S(=O)(=O)N2CCN(C(=O)c3ccccn3)CC2)cc1", "inactive"),
    ("CC(=O)Nc1ccc(NC(=O)c2cc(=O)c3ccc(C)cc3o2)cc1", "inactive"),
    ("COc1ccc(Nc2ncc(F)c(N3CCOCC3)n2)cc1", "inactive"),
    ("O=[N+]([O-])c1ccc(Nc2nc(N3CCOCC3)nc(N3CCOCC3)n2)cc1", "inactive"),
    ("CC1CCN(c2nc(Cl)nc(Nc3ccc([N+](=O)[O-])cc3)n2)CC1", "39.8 µM (active)"),
    ("CC(C)=CCN1CCN(Cc2cccc3nonc23)CC1CCO (stereo unspecified)", "inactive"),
    ("COc1ccc(C2c3ccc4ccccc4c3Oc3ncn(CCN4CCOCC4)c(=N)c32)cc1 (stereo unspecified)", "14.1 µM (active)"),
    ("CCOc1nc(Nc2ccc([N+](=O)[O-])cc2)nc(NC(C)(C)C)n1", "inactive"),
]

Input line: Look up Potency for this molecule: CCN(c1ccccc1)S(=O)(=O)c1ccc(Cl)c(C(=O)N2CCCC2)c1
Output line: inactive

Input line: Same again, this time with Cc1ccc(C)c(OC(=O)c2cccnc2)c1
Output line: inactive

Input line: Same again, this time with N=c1c(C(=O)NC2CCCC2)cc2c(=O)n3ccccc3nc2n1CCCN1CCOCC1
Output line: inactive

Data origin, for the record: ChEMBL document CHEMBL1201862
